So I've got a bunch of molecules here, and I need their pEC50 values.
Biological target: Human Farnesoid X Receptor (NR1H4, FXR) (Homo sapiens, UniProt Q96RI1)
Sequence (Q96RI1 whole entry): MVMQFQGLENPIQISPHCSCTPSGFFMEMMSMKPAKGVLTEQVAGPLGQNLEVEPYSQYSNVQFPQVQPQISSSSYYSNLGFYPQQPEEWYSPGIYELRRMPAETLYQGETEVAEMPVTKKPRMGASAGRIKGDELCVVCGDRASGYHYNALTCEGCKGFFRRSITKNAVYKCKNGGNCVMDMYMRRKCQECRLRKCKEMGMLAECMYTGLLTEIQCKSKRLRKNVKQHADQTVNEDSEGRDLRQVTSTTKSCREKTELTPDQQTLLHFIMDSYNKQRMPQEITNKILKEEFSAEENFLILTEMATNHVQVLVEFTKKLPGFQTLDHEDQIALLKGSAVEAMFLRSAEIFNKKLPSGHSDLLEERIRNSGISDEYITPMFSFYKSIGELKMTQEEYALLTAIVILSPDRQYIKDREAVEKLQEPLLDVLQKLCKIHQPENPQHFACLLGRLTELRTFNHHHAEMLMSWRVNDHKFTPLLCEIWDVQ
Test: FXR reporter assay, EC50 and efficacy (Indigo Biosciences luciferase reporter cells)
Type: cell-based
One number for each entry, as −log10 of the molar value.

Request: Given the entry CC[C@@H]1[C@@H]2[C@@H](F)[C@H](O)CC[C@]2(C)C2CC[C@@]3(C)C(CCC3[C@H](C)CCNC(=O)NS(=O)(=O)c3cccc(C)c3)C2[C@@H]1O (stereo partly drawn) , report its measured pEC50.
Response: 7.64

Quick request: pEC50 for each listed item, please.
1. CC[C@@H]1[C@@H]2[C@@H](F)[C@H](O)CC[C@]2(C)C2CC[C@@]3(C)C(CCC3[C@H](C)CCNC(=O)NS(=O)(=O)c3ccccc3F)C2[C@@H]1O (stereo partly drawn)
2. CC[C@H]1[C@@H](O)[C@@H]2[C@H](CC[C@]3(C)[C@@H]([C@H](C)CCC(=O)NS(=O)(=O)c4cccc(F)c4)CC[C@@H]23)[C@@]2(C)CC[C@@H](O)[C@H](F)[C@@H]12

Response:
[7.37, 7.34]
